Biological target: MRP1 (Multidrug resistance-associated protein 1) (Homo sapiens)
Sequence (P33527 whole entry): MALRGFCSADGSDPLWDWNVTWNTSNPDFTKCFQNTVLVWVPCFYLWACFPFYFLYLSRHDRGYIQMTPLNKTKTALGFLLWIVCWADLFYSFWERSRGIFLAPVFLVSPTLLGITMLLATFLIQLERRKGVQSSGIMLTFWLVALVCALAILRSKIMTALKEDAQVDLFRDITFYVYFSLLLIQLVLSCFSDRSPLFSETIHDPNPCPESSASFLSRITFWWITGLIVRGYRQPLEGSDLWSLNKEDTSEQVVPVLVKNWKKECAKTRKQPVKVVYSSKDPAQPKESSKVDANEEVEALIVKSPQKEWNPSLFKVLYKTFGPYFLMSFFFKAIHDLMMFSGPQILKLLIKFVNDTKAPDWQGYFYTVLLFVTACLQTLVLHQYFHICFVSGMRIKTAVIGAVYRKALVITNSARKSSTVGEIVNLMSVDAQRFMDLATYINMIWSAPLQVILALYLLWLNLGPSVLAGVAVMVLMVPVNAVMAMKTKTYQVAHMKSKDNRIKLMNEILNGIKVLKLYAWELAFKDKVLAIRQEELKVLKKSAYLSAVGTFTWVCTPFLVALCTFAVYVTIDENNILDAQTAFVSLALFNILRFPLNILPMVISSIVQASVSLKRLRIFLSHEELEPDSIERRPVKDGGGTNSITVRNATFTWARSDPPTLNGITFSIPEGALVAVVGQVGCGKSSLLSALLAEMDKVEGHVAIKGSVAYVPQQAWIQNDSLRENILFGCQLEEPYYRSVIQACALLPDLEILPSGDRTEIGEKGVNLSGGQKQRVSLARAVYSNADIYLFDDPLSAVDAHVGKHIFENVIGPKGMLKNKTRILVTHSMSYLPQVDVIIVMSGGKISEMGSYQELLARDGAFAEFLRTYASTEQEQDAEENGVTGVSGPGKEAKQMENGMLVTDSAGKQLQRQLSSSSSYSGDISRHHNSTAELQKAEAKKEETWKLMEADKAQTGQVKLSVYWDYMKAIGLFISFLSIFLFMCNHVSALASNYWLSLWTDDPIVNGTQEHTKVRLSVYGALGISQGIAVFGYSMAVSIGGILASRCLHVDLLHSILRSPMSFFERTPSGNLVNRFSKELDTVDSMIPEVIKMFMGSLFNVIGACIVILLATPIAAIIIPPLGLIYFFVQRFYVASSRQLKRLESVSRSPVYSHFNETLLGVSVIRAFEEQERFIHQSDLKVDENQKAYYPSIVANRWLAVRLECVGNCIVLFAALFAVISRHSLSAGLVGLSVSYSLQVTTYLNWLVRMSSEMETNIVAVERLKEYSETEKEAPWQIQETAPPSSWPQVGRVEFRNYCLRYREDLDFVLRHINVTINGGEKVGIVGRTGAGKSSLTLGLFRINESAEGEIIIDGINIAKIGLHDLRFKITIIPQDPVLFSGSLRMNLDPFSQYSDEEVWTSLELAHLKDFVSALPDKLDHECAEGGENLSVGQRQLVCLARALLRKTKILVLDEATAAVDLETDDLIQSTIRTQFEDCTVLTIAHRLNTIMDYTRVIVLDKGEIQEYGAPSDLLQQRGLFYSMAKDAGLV
Assay: TP_TRANSPORTER: inhibition of E217betaG in the presence of Ibuprofen at a concentration of 200uM in membrane vesicles from MRP1-expressing Sf9 cells
Assay type: functional, cell membranes, Membrane vesicle
Set-up: scale not given: the % may be the effect or the level left
Details: probe E217betaG, read-out: Activity
measured-attribute: activity at 200 µM

Param item = CC(C)Cc1ccc(C(C)C(=O)O)cc1 (stereo unspecified) [IBUPROFEN] ; retrieve measured activity at 200 µM. 79%

* * *

Biological target: UniProt O15439
Sequence (O15439 whole entry): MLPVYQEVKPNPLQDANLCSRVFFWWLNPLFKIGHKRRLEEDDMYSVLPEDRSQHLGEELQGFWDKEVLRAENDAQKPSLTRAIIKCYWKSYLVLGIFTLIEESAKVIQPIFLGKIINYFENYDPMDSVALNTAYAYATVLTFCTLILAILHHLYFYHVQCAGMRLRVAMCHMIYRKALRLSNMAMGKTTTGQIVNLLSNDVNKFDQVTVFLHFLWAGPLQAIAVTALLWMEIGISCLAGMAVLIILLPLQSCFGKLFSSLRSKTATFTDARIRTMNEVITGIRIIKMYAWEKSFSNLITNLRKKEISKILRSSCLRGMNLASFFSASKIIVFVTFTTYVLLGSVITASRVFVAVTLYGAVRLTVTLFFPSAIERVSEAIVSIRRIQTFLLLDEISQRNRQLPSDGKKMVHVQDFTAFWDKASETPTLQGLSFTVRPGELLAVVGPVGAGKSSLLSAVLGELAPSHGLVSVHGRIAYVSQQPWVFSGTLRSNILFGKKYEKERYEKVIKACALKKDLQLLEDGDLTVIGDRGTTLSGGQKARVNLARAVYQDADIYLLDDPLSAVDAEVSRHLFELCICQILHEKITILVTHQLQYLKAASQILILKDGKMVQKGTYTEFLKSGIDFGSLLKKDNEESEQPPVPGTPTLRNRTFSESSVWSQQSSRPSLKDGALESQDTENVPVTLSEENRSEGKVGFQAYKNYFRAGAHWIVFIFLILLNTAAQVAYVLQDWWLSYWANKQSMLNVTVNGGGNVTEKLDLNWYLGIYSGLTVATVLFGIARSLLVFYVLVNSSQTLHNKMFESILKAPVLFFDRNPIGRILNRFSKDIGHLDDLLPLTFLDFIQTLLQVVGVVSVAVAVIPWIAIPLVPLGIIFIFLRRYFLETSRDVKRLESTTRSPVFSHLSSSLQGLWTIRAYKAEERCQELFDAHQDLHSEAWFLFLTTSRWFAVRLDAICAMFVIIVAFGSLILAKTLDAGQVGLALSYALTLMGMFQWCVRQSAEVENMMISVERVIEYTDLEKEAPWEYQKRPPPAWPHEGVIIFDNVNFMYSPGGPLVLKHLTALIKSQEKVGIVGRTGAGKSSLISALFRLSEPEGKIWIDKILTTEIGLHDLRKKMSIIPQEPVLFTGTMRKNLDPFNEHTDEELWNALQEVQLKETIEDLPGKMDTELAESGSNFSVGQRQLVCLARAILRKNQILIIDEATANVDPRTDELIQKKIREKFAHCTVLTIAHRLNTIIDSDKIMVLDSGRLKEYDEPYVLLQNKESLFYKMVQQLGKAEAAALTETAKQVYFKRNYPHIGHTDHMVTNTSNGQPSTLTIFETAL
Assay: TP_TRANSPORTER: inhibition of alaninyl-d4TMP in the presence of Thromboxane B2 at a concentration of 20uM in membrane vesicles from MRP4-expressing Sf9 cells
Type: functional, cell membranes, Membrane vesicle
Design: scale not given: the % may be the effect or the level left
Settings: probe alaninyl-d4TMP, read-out: Activity
measured-attribute: activity at 20 µM (%)
Express it in %; write the number only.

Given the molecule CCCCC[C@H](O)/C=C/[C@H]1OC(O)C[C@H](O)[C@@H]1C/C=C\CCCC(=O)O (stereo partly specified) [THROMBOXANE B2] , what is its reported activity at 20 µM? 29

* * *

Molecular target: MRP5 (ATP-binding cassette sub-family C member 5) (Homo sapiens, UniProt O15440)
Sequence (O15440 whole entry): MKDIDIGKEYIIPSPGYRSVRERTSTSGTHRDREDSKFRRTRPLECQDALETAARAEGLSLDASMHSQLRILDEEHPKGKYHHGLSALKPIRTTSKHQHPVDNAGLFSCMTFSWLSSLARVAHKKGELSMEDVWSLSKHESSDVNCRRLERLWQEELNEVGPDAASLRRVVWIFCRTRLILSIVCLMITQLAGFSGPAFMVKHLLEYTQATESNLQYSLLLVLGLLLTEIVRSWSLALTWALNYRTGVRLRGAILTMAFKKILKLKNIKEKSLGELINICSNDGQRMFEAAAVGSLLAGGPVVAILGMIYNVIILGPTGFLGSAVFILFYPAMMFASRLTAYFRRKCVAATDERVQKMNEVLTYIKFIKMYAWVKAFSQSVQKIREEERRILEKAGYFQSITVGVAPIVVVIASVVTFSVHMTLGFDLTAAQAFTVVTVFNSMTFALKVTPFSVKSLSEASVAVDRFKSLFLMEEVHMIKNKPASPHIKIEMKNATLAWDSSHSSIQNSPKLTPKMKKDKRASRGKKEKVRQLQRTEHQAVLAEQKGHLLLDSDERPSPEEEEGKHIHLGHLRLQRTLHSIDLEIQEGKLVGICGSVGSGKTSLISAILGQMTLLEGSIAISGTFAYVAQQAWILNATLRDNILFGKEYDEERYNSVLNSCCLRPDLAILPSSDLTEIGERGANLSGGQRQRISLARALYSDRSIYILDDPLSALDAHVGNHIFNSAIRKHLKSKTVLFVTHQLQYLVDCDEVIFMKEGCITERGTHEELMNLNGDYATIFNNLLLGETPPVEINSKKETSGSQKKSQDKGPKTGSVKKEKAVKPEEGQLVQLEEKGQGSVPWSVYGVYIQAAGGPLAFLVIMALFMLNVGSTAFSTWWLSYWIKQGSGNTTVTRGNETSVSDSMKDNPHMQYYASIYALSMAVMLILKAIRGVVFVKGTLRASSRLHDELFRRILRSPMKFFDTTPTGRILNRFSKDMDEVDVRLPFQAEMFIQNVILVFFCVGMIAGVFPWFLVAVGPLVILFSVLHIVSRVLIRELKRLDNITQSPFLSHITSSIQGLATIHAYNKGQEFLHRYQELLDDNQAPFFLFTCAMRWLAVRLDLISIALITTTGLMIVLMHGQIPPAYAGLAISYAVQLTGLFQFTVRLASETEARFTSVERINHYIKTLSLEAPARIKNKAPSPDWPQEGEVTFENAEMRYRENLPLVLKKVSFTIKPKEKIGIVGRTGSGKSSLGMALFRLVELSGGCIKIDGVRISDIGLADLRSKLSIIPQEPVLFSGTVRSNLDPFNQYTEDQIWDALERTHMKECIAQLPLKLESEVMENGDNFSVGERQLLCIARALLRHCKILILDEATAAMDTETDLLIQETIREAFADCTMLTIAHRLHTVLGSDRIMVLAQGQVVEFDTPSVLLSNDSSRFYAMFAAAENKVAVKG
Assay: TP_TRANSPORTER: inhibition of alaninyl-d4TMP by Prostaglandin E2 at a concentration of 20uM in membrane vesicle from MRP5-expressing HEK293 cells
Assay type: functional, cell membranes
Set-up: scale not given: the % may be the effect or the level left
Conditions: membrane vesicles from MRP5-expressing HEK293 cells, probe alaninyl-d4TMP, read-out: Activity
measured-attribute: activity at 20 µM (%)
Write the answer as a number in %, unit excluded.

So what activity at 20 µM did CCCCC[C@H](O)/C=C/[C@H]1[C@H](O)CC(=O)[C@@H]1C/C=C\CCCC(=O)O get with MRP5 (ATP-binding cassette sub-family C member 5) (Homo sapiens, UniProt O15440)? 74

* * *

Target: MRP5 (ATP-binding cassette sub-family C member 5) (Homo sapiens, UniProt O15440)
Assay: TP_TRANSPORTER: inhibition of alaninyl-d4TMP by Prostaglandin F2alpha at a concentration of 20uM in membrane vesicle from MRP5-expressing HEK293 cells
Assay type: functional, cell membranes
Set-up: scale not given: the % may be the effect or the level left
Conditions: membrane vesicles from MRP5-expressing HEK293 cells, probe alaninyl-d4TMP, read-out: Activity
measured-attribute: activity at 20 µM
Could you write the number and then its unit?

What does the data say about its activity at 20 µM? Entry: CCCCC[C@H](O)/C=C/[C@@H]1[C@@H](C/C=C\CCCC(=O)O)[C@@H](O)C[C@H]1O [DINOPROST] 63%

# credit: ChEMBL document CHEMBL2073947
